System: SR
Test: NCI tumour cell line growth inhibition, 48 h
Activity calls are given as the source filed them. No stated cut-off is given here; in the data, active = GI50 up to about 1.1 µM and inactive = higher.
Hi! Could you answer with just one of these? true (1) = active, false (0) = inactive

Enquiry: Just curious, what result did `CCc1cc(Cc2cc(CC)c(NC(=O)C(=O)CC(=O)c3sc(-c4cccnc4)nc3C)c(CC)c2)cc(CC)c1NC(=O)C(=O)CC(=O)c1sc(-c2cccnc2)nc1C` get here?
Return: false (0)

Enquiry: Which outcome was assigned to CC(=O)C1=C(C)N(c2ccc(C)cc2)C2(O)C3=C(C(=O)c4ccccc4C3=O)C(O)=CC12Cl (centres undefined) in this test?
Return: false (0)

Enquiry: How was [C-]#[N+]C(C)(C)C[C@H]1CC(C)C2CCC(C)C3([N+]#[C-])CCC(=C)C1[C@H]23 (some centres undefined) classified in this test?
Return: true (1)

Enquiry: # outcome recorded in this test, key = CC(C)(C)[Si](C)(C)OC1(CCc2ccccc2OS(=O)(=O)C(F)(F)F)CCCC=C1COCc1ccccc1 (centres undefined)
Return: false (0)

* * *

For each of the compounds below, state its GI50.
Tested on: UACC-62
Test: NCI tumour cell line growth inhibition, 48 h
Activity calls are given as the source filed them. Rule as the data show it: active = GI50 up to about 1.1 µM and inactive = higher.

Enquiry: Please give measured GI50 of the following entry: COc1cc(OC2OC(CO)C(O)C(O)C2O)c2c(c1)O[C@@H]1[C@H](O)Oc3cc(OC)c(OC)cc3[C@]1(O)C2=O (some centres undefined)
Return: > 25 µM (inactive)

Enquiry: Identify measured GI50 corresponding to `N#CCN1CCOCCOCCN(CC#N)CCOCCOCC1`
Return: > 100 µM (inactive)

Enquiry: Recall and state the measured GI50 for CC(C)(C)[Si](C)(C)O[C@@H](C(=O)OC1C=CCCC1)[C@@H](NC(=O)c1ccccc1)c1ccccc1 (some centres undefined) .
Return: 26.8 µM (inactive)

Enquiry: Please give the documented GI50 of c1ccc(C2N=C(c3ccccn3)C(c3ccccn3)=NC2c2ccccc2)cc1 (centres undefined)
Return: > 100 µM (inactive)

* * *

Test system: KM12
Assay: NCI tumour cell line growth inhibition, 48 h
The source made the active and inactive calls. Cut-off read from the data, not from the text of the source: active = GI50 up to about 1.1 µM and inactive = higher.
Tick one outcome: active, inactive

Enquiry: In this assay, the call recorded for `C/C(=N/O)c1cccc(Nc2nc3ccccc3c3[nH]c4ccccc4c23)c1` was what?
Return: inactive

Enquiry: Assay outcome for COC(=O)c1ccccc1C1CN=NC12Cc1ccc(C)cc1C2=O (stereo not given) : what was it?
Return: inactive

Enquiry: What outcome does the record of this test show for CCC(=O)C12OC3OC(C)(C)OC3C1OC(C)(C)O2 (stereo not given) ?
Return: inactive

Enquiry: Outcome logged for O=C(Nc1ccccc1)c1cc(S(=O)(=O)NC2=Nc3ccc(Cl)cc3C(c3ccccc3)N2)c(SSc2cc(Cl)c(C(=O)Nc3ccccc3)cc2S(=O)(=O)NC2=Nc3ccc(Cl)cc3C(c3ccccc3)N2)cc1Cl (stereo not given) in this assay:
Return: inactive

Enquiry: Please state the recorded outcome for this compound: `CCN(CC)CC[n+]1ccc2c(C)c3[nH]c4ccccc4c3c(C)c2c1`
Return: active

Enquiry: For `C[N+](C)([O-])CCC=C1c2ccccc2CCc2ccccc21` , which call appears in the assay record?
Return: inactive

Enquiry: Hi team, can someone confirm the assay call for COC(=O)/C(=N\NC(=O)c1ccccc1O)C(C#N)c1ccccc1 (stereo not given) ?
Return: inactive

Enquiry: What did the test return for `CCOC(=O)c1c(N2CCCC2)[nH]c(=O)c(C(c2c(O)c(C(=O)OCC)c(N3CCCC3)[nH]c2=O)C(C)C)c1O` ?
Return: inactive

Enquiry: Please state the recorded outcome for this compound: `O=C1NC(=S)NC(=O)C1=Cc1ccc(-c2ccccc2)cc1`
Return: inactive

Enquiry: Hi team, can someone confirm the assay call for CC(C)(C)[Si](C)(C)O[C@@H](C(=O)OC1C=CCCC1)[C@@H](NC(=O)c1ccccc1)c1ccccc1 (stereo not given in full) ?
Return: inactive

Enquiry: Fill in: this test's call for `CC(=O)OCCn1cnc2c(NCC=C(C)C)ncnc21` is ___
Return: inactive

Enquiry: Each compound tested received a call. Report the one for `c1ccc(C2=C(c3ccccc3)Sc3nnc(CCCCCCCCc4nnc5n4NC(c4ccccc4)=C(c4ccccc4)S5)n3N2)cc1` .
Return: inactive

Enquiry: Assay result, entry `C#CCOCn1cnc2ncnc(Cl)c21` — outcome?
Return: inactive

Enquiry: For `N=C(N)SCCN1CCCCC1` , which call appears in the assay record?
Return: inactive

Enquiry: How did this test come out for `N#Cc1c2c(c(Nc3ccc(F)cc3)n3c1nc1ccccc13)CCCC2` ?
Return: inactive

Enquiry: How did this test come out for Fc1ccccc1C1SCC2=Nc3ccccc3CN21 (stereo not given) ?
Return: inactive

Enquiry: Called result for `COc1ccc(C(=O)/C(=N/Nc2ccccc2)c2ccc(OC)cc2)cc1`
Return: inactive

Enquiry: Look up the recorded call for CCOP(=O)(OCC)C(c1ccccc1)N(C(=O)NC(F)(F)F)c1cccc(F)c1 (stereo not given) in this test.
Return: inactive

Enquiry: So what was the verdict on `N/C(=N\O)N/N=C/c1ccc2c(c1)OCCO2` in this test?
Return: inactive

Enquiry: What outcome does the record of this test show for `CN(C)c1ccc(C=C2C(=O)OC(C)(C)OC2=O)cc1Br` ?
Return: inactive

Enquiry: Name the outcome recorded for `CN1Cc2ccccc2S(=O)(=O)n2cccc2C1=O` in the assay.
Return: inactive

Enquiry: Recorded test outcome, item N#CC1CCCC2SC(F)(F)C(F)(F)C12 (stereo not given)
Return: inactive

Enquiry: Given `Cc1nc(Nc2ccc(Cl)c(Cl)c2)sc1C(=O)/C=C/c1ccc2c(c1)OCO2` , state the outcome it received in this test.
Return: inactive

Enquiry: Recorded test call requested for O=C(CC(O)c1cccnc1)CC(O)c1cccnc1 (stereo not given)
Return: inactive

Enquiry: Called result for CC(=O)OCC1OC(SC2OC(COC(C)=O)C(OC(C)=O)C(OC(C)=O)C2OC(C)=O)C(OC(C)=O)C(OC(C)=O)C1OC(C)=O (stereo not given)
Return: inactive

Enquiry: What outcome does the record of this test show for CCCN(CCCCC(NC(C)=O)C(=O)NCc1ccccc1)C(=O)N(CCCl)N=O (stereo not given) ?
Return: inactive

Enquiry: Given `CC(=O)Oc1c2oc3cc(O)c(O)cc3c2c(OC(C)=O)c2oc3cc(O)c(O)cc3c12` , state the outcome it received in this test.
Return: inactive

Enquiry: Recorded test call requested for CC(O)CN1c2ccccc2Sc2ccc(Cl)cc21 (stereo not given)
Return: inactive

Enquiry: I would be grateful if you could indicate the recorded call for Cc1c(Cl)cccc1NC(=O)C(=O)C(C(=O)c1ccccc1-c1ccccc1)C1OC(=O)c2ccccc21 (stereo not given) .
Return: inactive

Enquiry: What call does the record list for `Cc1c2ccccc2c(C)c2c3c(ccc12)C(=O)C=CC3=O` ?
Return: inactive

Enquiry: What was the test verdict on `Cc1ccc(-c2nc(N/N=C/c3ccc(O)cc3)c3ccccc3n2)cc1` ?
Return: inactive

Enquiry: What call does the record list for `CCOC(=O)CN1C(=O)C(=O)N(c2ccc(OC)c3ccccc23)C1=O` ?
Return: inactive

Enquiry: Check the results log: what was the call for `CC1(C)OCC=CCO1` ?
Return: inactive

Enquiry: Called result for `O/N=C/c1ncccc1C1OCCO1`
Return: inactive

Enquiry: Name the outcome recorded for CC(=O)OC1COC(N2C(=O)/C(=N\Nc3ccc([N+](=O)[O-])cc3)c3cc(Br)c([N+](=O)[O-])cc32)C(OC(C)=O)C1OC(C)=O (stereo not given) in the assay.
Return: inactive

* * *

System: ACHN
Assay: NCI tumour cell line growth inhibition, 48 h
Calls of active or inactive are those of the source. Rule as the data show it: active = GI50 up to about 1.1 µM and inactive = higher.
Field: GI50. Provide a value for each of the compounds that follow.

Enquiry: State the measured GI50 (ACHN) of `Cc1nc2ccccc2c(=O)n1NC(=S)Nc1ccc(Cl)cc1[N+](=O)[O-]`
Return: > 100 µM (inactive)

Enquiry: For ACHN, give the measured GI50 of the entry CC(=O)CC12NC(=O)N(C)N=C1N(C)C(=O)N(C)C2=O (stereo unspecified)
Return: 74.6 µM (inactive)

Enquiry: Quote ACHN GI50 for entry `N#CC1=C(N2CCCC2)NC(=O)CC1=O` .
Return: > 100 µM (inactive)

Enquiry: Write GI50 of c1ccc(C2N=C(c3ccccn3)C(c3ccccn3)=NC2c2ccccc2)cc1 (stereo unspecified) ; system used: ACHN
Return: > 100 µM (inactive)

Enquiry: Send back ACHN GI50 of `COc1ccc2n[se]nc2c1` only.
Return: > 100 µM (inactive)

Enquiry: Give GI50 for Fc1ccccc1C1SCC2=Nc3ccccc3CN21 (stereo unspecified) tested on ACHN.
Return: > 100 µM (inactive)
